methodNotes: Stability of analytes in rat plasma (auto-sampler, freeze-thaw, room temperature, long-term)
conditionLabel: 1.56 ng/mL, three freeze-thaw cycles
Recorded Freeze thaw cycles Accuracy (%) for the following molecules

molecule: C[C@@H]1O[C@@H](Oc2c(-c3ccc(O)c(O)c3)oc3cc(O)cc(O)c3c2=O)[C@H](O)[C@H](O)[C@H]1O
Freeze thaw cycles Accuracy (%): 86.2

molecule: O=C(O)C=Cc1ccc(O)cc1
Freeze thaw cycles Accuracy (%): 95.1

molecule: O=C(/C=C/c1ccc(O[C@@H]2O[C@H](CO)[C@@H](O)[C@H](O)[C@H]2O)cc1)c1ccc(O)cc1O
Freeze thaw cycles Accuracy (%): 95.5

molecule: COc1ccc(-c2coc3cc(O[C@@H]4O[C@H](CO)[C@@H](O)[C@H](O)[C@H]4O)ccc3c2=O)cc1
Freeze thaw cycles Accuracy (%): 95.6

molecule: O=C(O)[C@H]1O[C@@H](Oc2cc(O)c3c(=O)cc(-c4ccc(O)cc4)oc3c2)[C@H](O)[C@@H](O)[C@@H]1O [apigenin-7-O-glucuronide]
Freeze thaw cycles Accuracy (%): 109.0

molecule: COc1c2c(cc3oc(CO)cc(=O)c13)O[C@H](C(C)(C)O)C2
Freeze thaw cycles Accuracy (%): 84.5

molecule: O=c1c(O[C@@H]2O[C@H](CO)[C@H](O)[C@H](O)[C@H]2O)c(-c2ccc(O)c(O)c2)oc2cc(O)cc(O)c12 [hyperoside]
Freeze thaw cycles Accuracy (%): 97.6

====

methodNotes: Pharmacokinetic study in rat plasma after oral administration of QJYQ (UHPLC-sMRM)
Format: in vivo, Sprague-Dawley rats
conditionLabel: male, Sprague-Dawley, rat, in vivo, po, 3.15 g/kg, Tmax
endpointLabel: Tmax (min)

itemSmiles: O=C1C[C@@H](c2ccc(O[C@@H]3O[C@H](CO)[C@@H](O)[C@H](O)[C@H]3O)cc2)Oc2cc(O)ccc21
scaleUnit: min
valueReported: 31.2

====

Recorded MRT (0-∞) for the following compounds
methodNotes: Pharmacokinetic study in rat plasma after oral administration of QJYQ (UHPLC-sMRM)
Assay type: in vivo, Sprague-Dawley rats
conditionLabel: rat, in vivo, po, 3.15 g/kg
endpointLabel: MRT (0-∞) (h)

compound: COc1c(O[C@@H]2O[C@H](C(=O)O)[C@@H](O)[C@H](O)[C@H]2O)cc(O)c2c(=O)cc(-c3ccccc3)oc12 [wogonoside]
valueReported: 8.40
//
compound: COC(=O)C1=CO[C@@H](O[C@@H]2O[C@H](CO)[C@@H](O)[C@H](O)[C@H]2O)[C@H]2[C@@H]1C(=O)C[C@@H]2C
valueReported: 7.95
//
compound: O=C(O)[C@H]1O[C@@H](Oc2cc(O)c3c(=O)cc(-c4ccc(O)cc4)oc3c2)[C@H](O)[C@@H](O)[C@@H]1O [apigenin-7-O-glucuronide]
valueReported: 8.62
//
compound: COc1cc(/C=C/C(=O)O)cc(OC)c1O
valueReported: 6.28

====

methodNotes: Stability of analytes in rat plasma (auto-sampler, freeze-thaw, room temperature, long-term)
conditionLabel: 50 ng/mL, room temperature 24 h
Recorded Room temperature for 24 h Accuracy (%) for the following molecules
endpointLabel: Room temperature for 24 h Accuracy (%)

molecule: O=C(O)[C@H]1O[C@@H](Oc2cc3oc(-c4ccc(O)cc4)cc(=O)c3c(O)c2O)[C@H](O)[C@@H](O)[C@@H]1O
valueReported: 91.2

molecule: O=C(/C=C/c1ccc(O)c(O)c1)O[C@H]1[C@H](O)C[C@](O)(C(=O)O)C[C@H]1O
valueReported: 91.2

molecule: COc1ccc(/C=C/C(=O)O)cc1O
valueReported: 108.0

molecule: CC(C)(O[C@@H]1O[C@H](CO)[C@@H](O)[C@H](O)[C@H]1O)[C@@H]1CC[C@](O)(CO)[C@H]2CC(=O)[C@@](C)(O)[C@@H]2C1 [atractyloside A]
valueReported: 97.6

molecule: CC(C)=CCC[C@](C)(O)[C@H]1CC[C@]2(C)[C@@H]1[C@H](O)C[C@@H]1[C@@]3(C)CC[C@H](O)C(C)(C)[C@@H]3[C@@H](O[C@@H]3O[C@H](CO)[C@@H](O)[C@H](O)[C@H]3O)C[C@]12C [ginsenoside Rh1]
valueReported: 100.0

molecule: O=c1cc(-c2ccccc2)oc2cc(O)c(O)c(O)c12
valueReported: 85.5

molecule: O=C(/C=C/c1ccc(O)c(O)c1)O[C@@H]1C[C@](O)(C(=O)O)C[C@@H](O)[C@H]1O
valueReported: 106.0
